# Tested on: Human immunodeficiency virus 1
# test protocol: Whole cell antiviral activity.
# Assay type: functional
IC90 strictly less than 60 nM = TRUE. Otherwise FALSE.

{"chem smiles": "O=C1N(Cc2ccc(CO)cc2)[C@H](Cc2ccccc2)[C@H](O)[C@@H](O)[C@@H](Cc2ccccc2)N1Cc1ccc(CO)cc1", "group label": "FALSE"}

Dear colleague, could you confirm whether IC90 of "O=C1N(Cc2cccc(-c3cc[nH]n3)c2)[C@H](Cc2ccccc2)[C@H](O)[C@@H](O)[C@@H](Cc2ccccc2)N1Cc1cccc(-c2cc[nH]n2)c1" falls below 60 nM? Thanks.
TRUE

---

# Tested on: Human immunodeficiency virus 1
# test protocol: Whole cell antiviral activity.
# Assay type: functional
measured attribute: log10 IC90 (log10 of the value in nM)
In plain terms, each number is the log10 of measured IC90 in nM.

Consider the reported log10 IC90 for these molecules:
{"chem smiles": "CNCCOc1ccc(C[C@@H]2[C@H](O)[C@@H](O)[C@@H](Cc3ccc(OCCNC)cc3)N(Cc3ccccc3)C(=O)N2Cc2ccccc2)cc1", "log10 IC90": 2.90}
{"chem smiles": "O=C1N(Cc2ccccc2)[C@H](Cc2ccc(OCCO)cc2)[C@H](O)[C@@H](O)[C@@H](Cc2ccc(OCCO)cc2)N1Cc1ccccc1", "log10 IC90": 1.89}
{"chem smiles": "O=C1N(Cc2cccc(-c3cc[nH]n3)c2)[C@H](Cc2ccc(O)cc2)[C@H](O)[C@@H](O)[C@@H](Cc2ccc(O)cc2)N1Cc1cccc(-c2cc[nH]n2)c1", "log10 IC90": 3.13}
{"chem smiles": "Nc1cccc(CN2C(=O)N(Cc3cccc(N)c3)[C@H](Cc3ccccc3)[C@H](O)[C@@H](O)[C@H]2Cc2ccccc2)c1", "log10 IC90": 2.10}
{"chem smiles": "O=C1N(Cc2ccccc2)[C@H](Cc2ccc(O)cc2)[C@H](O)[C@@H](O)[C@@H](Cc2ccc(O)cc2)N1Cc1ccccc1", "log10 IC90": 2.26}

I have this molecule here, "O=C1N(Cc2ccccc2)[C@H](Cc2ccc(OCc3ccncc3)cc2)[C@H](O)[C@@H](O)[C@@H](Cc2ccc(OCc3ccncc3)cc2)N1Cc1ccccc1" , and I need its recorded log10 IC90.
2.00

Thanks! And "O=C1N(Cc2cccc(-c3cc[nH]n3)c2)[C@H](Cc2ccc(OCCN3CCOCC3)cc2)[C@H](O)[C@@H](O)[C@@H](Cc2ccc(OCCN3CCOCC3)cc2)N1Cc1cccc(-c2cc[nH]n2)c1" ?
3.01

Thanks! And "O=C1N(Cc2ccccc2)[C@H](Cc2ccccc2)[C@H](O)[C@@H](O)[C@@H](Cc2ccccc2)N1Cc1ccccc1" ?
2.90

Thanks! And "CN(C)CCOc1ccc(C[C@@H]2[C@H](O)[C@@H](O)[C@@H](Cc3ccc(OCCN(C)C)cc3)N(Cc3cccc(-c4cc[nH]n4)c3)C(=O)N2Cc2cccc(-c3cc[nH]n3)c2)cc1" ?
3.73

Thanks! And "O=C1N(Cc2cccc(-c3cc[nH]n3)c2)[C@H](Cc2ccc(OCCO)cc2)[C@H](O)[C@@H](O)[C@@H](Cc2ccc(OCCO)cc2)N1Cc1cccc(-c2cc[nH]n2)c1" ?
2.66

Thanks! And "COc1ccc(C[C@@H]2[C@H](O)[C@@H](O)[C@@H](Cc3ccc(OC)cc3)N(Cc3ccccc3)C(=O)N2Cc2ccccc2)cc1" ?
2.78

Thanks! And "O=C1N(Cc2cccc(-c3cc[nH]n3)c2)[C@H](Cc2ccc(OCc3ccncc3)cc2)[C@H](O)[C@@H](O)[C@@H](Cc2ccc(OCc3ccncc3)cc2)N1Cc1cccc(-c2cc[nH]n2)c1" ?
1.26
